Target: SW1573 HiBiT-KRASG12C (Homo sapiens, UniProt P01116, G12C)
Construct: expressed in transfected cells
Sequence (P01116 1-188 isoform P01116-2 G12C): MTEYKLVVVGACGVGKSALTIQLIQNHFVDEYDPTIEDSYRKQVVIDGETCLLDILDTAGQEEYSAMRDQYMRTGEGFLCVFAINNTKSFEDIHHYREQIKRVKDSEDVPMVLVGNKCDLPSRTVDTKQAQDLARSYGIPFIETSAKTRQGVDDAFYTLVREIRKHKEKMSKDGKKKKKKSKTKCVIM
Test: HiBiT degradation assay (G12C), SW1573 HiBiT-KRASG12C cells
Format: cell-based
Conditions: 24 hours treatment, maximum degradation observed
Measured property: Dmax

Molecule: C#Cc1cccc2cc(O)cc(-c3ncc4c(N5CC6CCC(C6)C5)nc(OCCN5CCC(COCC(=O)N[C@H](C(=O)N6C[C@H](O)C[C@H]6C(=O)N[C@@H](C)c6ccc(-c7scnc7C)cc6)C(C)(C)C)CC5)nc4c3F)c12 [Compound 17]
Dmax: 20 to 60%
--
Molecule: CCc1cccc2cc(O)cc(-c3ncc4c(N5CC6CCC(C5)N6)nc(OC[C@@]56CCCN5[C@H](COCC(=O)N[C@H](C(=O)N5C[C@H](O)C[C@H]5C(=O)N[C@@H](C)c5ccc(-c7scnc7C)cc5)C(C)(C)C)CC6)nc4c3F)c12 [Compound 2]
Dmax: 20 to 60%
--
Molecule: CCc1cccc2cc(O)cc(-c3ncc4c(N5CCCCCC5)nc(OC[C@@]56CCCN5[C@H](COC(=O)N5CCN(c7cc([C@H](C(=O)N8C[C@H](O)C[C@H]8C(=O)N[C@@H](C)c8ccc(-c9scnc9C)cc8)C(C)C)on7)CC5)CC6)nc4c3F)c12 [Compound 42]
Dmax: 80 to 100%
--
Molecule: CCc1cccc2cc(O)cc(-c3ncc4c(N5CC6CCC(C5)N6)nc(OC[C@]56CCCN5[C@@H](COc5cc(C(C(=O)N7C[C@H](O)C[C@H]7C(=O)N[C@@H](C)c7ccc(-c8scnc8C)cc7)C(C)C)on5)CC6)nc4c3F)c12 (some centres unmarked) [Compound 38]
Dmax: 20 to 60%

Please report Dmax for the following molecule: CCc1cccc2cc(O)cc(-c3ncc4c(N5CC6CCC(C5)N6)nc(OC[C@@]56CCCN5[C@H](COC(=O)N5CCN(c7cc([C@H](C(=O)N8C[C@H](O)C[C@H]8C(=O)N[C@@H](C)c8ccc(-c9scnc9C)cc8)C(C)C)on7)CC5)CC6)nc4c3F)c12 [Compound 5]
60 to 80%

Using known records, supply Dmax for CCc1cccc2cc(O)cc(-c3ncc4c(N5CCCCCC5)nc(OC[C@]56CCCN5[C@@H](COC(=O)N5CCN(c7cc([C@H](C(=O)N8C[C@H](O)C[C@H]8C(=O)N[C@@H](C)c8ccc(-c9scnc9C)cc8)C(C)C)on7)CC5)CC6)nc4c3F)c12 [Compound 45]
60 to 80%

Please look at this molecule and report its Dmax: Cc1ncsc1-c1ccc([C@H](C)NC(=O)[C@@H]2C[C@@H](O)CN2C(=O)[C@@H](c2cc(OCC3CCN(CCOc4nc(N5CC6CCC(C5)N6)c5cnc(-c6cc(O)cc(Cl)c6C(C)C)c(F)c5n4)CC3)no2)C(C)C)cc1 [Compound 41]
20 to 60%

In one line, give reported Dmax of the entry C#Cc1c(F)ccc2cc(O)cc(-c3ncc4c(N5CC6CCC(C5)N6)nc(OCCN5CCC(COc6cc([C@H](C(=O)N7C[C@H](O)C[C@H]7C(=O)N[C@@H](C)c7ccc(-c8scnc8C)cc7)C(C)C)on6)CC5)nc4c3F)c12 [Compound 39] .
20 to 60%

Consider the molecule Cc1ncsc1-c1ccc([C@H](C)NC(=O)[C@@H]2C[C@@H](O)CN2C(=O)[C@@H](c2cc(OCC3CCN(CCOc4nc(N5CC6CCC(C5)N6)c5cnc(-c6cc(O)cc(Cl)c6C6CC6)c(F)c5n4)CC3)no2)C(C)C)cc1 [Compound 43] and give its recorded Dmax.
20 to 60%

Report Dmax for CCc1cccc2cc(O)cc(-c3ncc4c(N5CC6CCC(C5)N6)nc(OC[C@]56CCCN5[C@@H](COCC(=O)N[C@H](C(=O)N5C[C@H](O)C[C@H]5C(=O)N[C@@H](C)c5ccc(-c7scnc7C)cc5)C(C)(C)C)CC6)nc4c3F)c12 [Compound 1]
20 to 60%

Identify the reported Dmax for the following entry. CCc1cccc2cc(O)cc(-c3ncc4c(N5CC6CCC(C6)C5)nc(OCCN5CCC(COCC(=O)N[C@H](C(=O)N6C[C@H](O)C[C@H]6C(=O)N[C@@H](C)c6ccc(-c7scnc7C)cc6)C(C)(C)C)CC5)nc4c3F)c12 [Compound 19]
20 to 60%

Values were extracted from patent US20250206732A1.
